Kindly state melting point for each of the entries shown.

Cc1cc(-c2ccc(C(F)(F)F)cc2)cc(-c2cncc(-c3cccc(S(N)(=O)=O)c3)c2)n1    235 °C (dec.)

// each molecule listed below needs its melting point
1. Cc1nc(-c2cn(-c3cc(C(F)(F)F)cc(-c4ccc(C(F)(F)F)cc4)n3)cn2)sc1S(N)(=O)=O
2. NS(=O)(=O)c1ccc(-c2cn(-c3cc(-c4ccc(C(F)(F)F)cc4)cc(C(F)(F)F)n3)cn2)s1
3. Cc1cc(-c2ccc(Cl)c(Cl)c2)cc(-c2cccc(-c3ccc(N)nc3)c2)n1
4. NS(=O)(=O)c1cccc(-c2cccc(-c3cc(-c4ccc(C(F)(F)F)cc4)cc(CO)n3)n2)c1

Output:
1. 187 °C (dec.)
2. 237 °C (dec.)
3. 99 °C (dec.)
4. 213 °C (dec.)

Provide melting point for all items below, preserving their order.
1. Cc1cc(-c2ccc(C(F)(F)F)cc2)cc(-c2ccnc(-c3cccc(S(=O)(=O)N4CCN(C)CC4)c3)c2)n1
2. Cc1cc(-c2ccc(Cl)c(C)c2)nc(-n2cnc(-c3ccc(N)nc3)c2)n1
3. Cc1cc(-c2ccc(Cl)cc2)nc(-n2cnc(-c3cnc(N)nc3)c2)n1

Output:
1: 180 °C (dec.); 2: 202 °C (dec.); 3: 264 to 266 °C

###

hey, just use Y if measured melting point is less than 200 °C, otherwise N

Before answering, review these 4 worked examples.
NS(=O)(=O)c1ccc(-c2cn(-c3nc(-c4ccc(Cl)cc4)cc(C(F)(F)F)n3)cn2)cc1 [Example 175]    N
Cc1cc(-c2ccc(C(F)(F)F)cc2)cc(-c2cccc(-c3cccc(S(=O)(=O)N4CCOCC4)c3)n2)n1 [Example 373]    N
Nc1cccc(-c2cccc(-c3nc(-c4ccc(C(F)(F)F)cc4)cc(C(F)(F)F)n3)c2)c1 [Example 220]    Y
NS(=O)(=O)c1cccc(-c2cccc(-c3nc(-c4ccc(C(F)(F)F)cc4F)cc(C(F)(F)F)n3)c2)c1 [Example 412]    N

Input: Lab note: confirm whether the reported melting point for this compound is below 200 °C, equality not counting. compound: Cc1cc(-c2cc(C(F)(F)F)nc(-n3cnc(-c4ccc(S(N)(=O)=O)cc4)c3)n2)ccc1C(F)(F)F [Example 212]
Output: N

###

assay.endpoint: melting point

Lab note: each molecule below needs its melting point filled in.
1. FC(F)(F)c1ccc(-c2cc(C(F)(F)F)cc(-c3cccc(-c4cccnc4)c3)n2)cc1 [Example 59]
2. Cc1cc(-c2ccc(C(F)(F)F)cc2)cc(-c2cccc(-c3cccc(S(=O)(=O)NCCO)c3)n2)n1 [Example 359]
3. Cc1cc(-c2ccc(C(F)(F)F)cc2)cc(-c2cccc(-c3ccc(N)nc3)c2)n1 [Example 62]

Output:
1. 164 to 166 °C
2. 110 °C (dec.)
3. 68 to 90 °C

###

Consider the following compounds; for each one, report its melting point.

// worked examples, melting point included
Cc1cc(-c2ccc(C(F)(F)F)cc2)nc(-c2ccnc(-c3cccc(N)c3)c2)c1    87 °C (dec.)
Cc1cc(-c2ccc(C(F)(F)F)cc2)cc(-c2cccc(-c3ccc(S(N)(=O)=O)s3)n2)n1    243 °C (dec.)
Cc1cc(-c2ccc(C(F)(F)F)cc2)cc(-c2cccc(-c3csc(NS(=O)(=O)NC(=O)OC(C)(C)C)n3)c2)n1    152 °C (dec.)

Input: Annotate the compound "Cc1cc(-c2ccc(C(F)(F)F)cc2)cc(-c2cncc(-c3cnc(N)nc3)c2)n1" with its measured melting point.
Output: 248 to 252 °C

###

For each entry below, report its melting point value.

Cc1cc(-c2ccc(C(F)(F)F)cc2)cc(-c2ccnc(-c3cccc(N)c3)c2)n1    162 °C (dec.)
Cc1cc(-c2ccc(C(F)(F)F)cc2)cc(-c2cccc(-c3cnc(N)nc3)n2)n1    219 to 222 °C
Cc1cc(-c2ccc(Cl)cc2)cc(-c2cccc(-c3cnc(N)nc3)c2)n1    197 to 199 °C

Shifting focus to the compound that follows.
Input: Retrieve melting point measured for "Cc1cc(-c2ccc(Cl)c(C)c2)nc(-c2cccc(-c3cccc(S(N)(=O)=O)c3)c2)n1" and print it.
Output: 201 °C

###

Exercise: for every item that follows, state its recorded melting point.

Nc1ccc(-c2cn(-c3cc(-c4ccc(C(F)(F)F)cc4)cc(C4CC4)n3)cn2)cn1 [Example 54]    233 to 235 °C
Cc1cc(-c2ccc(C(F)(F)F)cc2)cc(-c2ccnc(-c3cccc(S(N)(=O)=O)c3)c2)n1 [Example 289]    > 250 °C

Next compound, please.
Input: Input Cc1cc(-c2ccc(C(F)(F)F)cc2)cc(-c2cccc(-c3cccnc3)c2)n1 [Example 61] , output reported melting point.
Output: 89 to 106 °C

###

Kindly supply the reported melting point values for the records listed here.
Give bare numbers, in °C.

Cc1cc(-c2ccc(Cl)cc2)nc(-n2cnc(-c3ncc(S(N)(=O)=O)s3)c2)n1    255.5
Cc1cc(-c2ccc(C(F)(F)F)cc2)cc(-c2cccc(-c3cccc(S(C)(=O)=O)c3)n2)n1    186

Okay, next one:
Input: Assign melting point to the following record: "CCc1cc(-c2ccc(C(F)(F)F)cc2)cc(-c2cccc(-c3cnc(N)nc3)c2)n1"
Output: 209

###

I'd be grateful if you could share measured melting point for these entries.

Recorded results for 3 molecules are shown here.
Cc1cc(-c2ccc(C(F)(F)F)cc2)nc(-c2cccc(-c3cccc(S(N)(=O)=O)c3)n2)n1    239 °C (dec.)
Cc1cc(-c2ccc(C(F)(F)F)cc2)cc(-c2cccc(-c3ccc(N)nc3)n2)n1    208 to 211 °C
Cc1cc(-c2ccc(C(F)(F)F)cc2)cc(-c2cccc(-c3cccc(S(=O)(=O)N4CCN(C)CC4)c3)n2)n1    167 °C (dec.)

--- query ---
Input: Annotate the molecule "COc1cc(-c2cc(C)nc(-c3ccnc(-c4ccc(S(=O)(=O)NC(C)(C)C)s4)c3)c2)ccc1C(F)(F)F" with its measured melting point.
Output: 209 °C (dec.)

###

Exercise: for every item that follows, state its recorded melting point.

Known melting point results, listed for orientation:
NS(=O)(=O)c1cccc(-c2noc(-c3nc(-c4ccc(C(F)(F)F)cc4)cc(C(F)(F)F)n3)n2)c1    204 °C
Cc1cc(-c2ccc(C(F)(F)F)cc2)cc(-c2ccnc(-c3cccc(S(=O)(=O)NCCO)c3)c2)n1    103 °C (dec.)

Input: Consider the molecule "Cc1cc(-c2ccc(C(F)(F)F)cc2)cc(-c2cncc(-c3ccc(N)nc3)c2)n1" . State its measured melting point.
Output: 161 to 177 °C

###

Hi there, I'd appreciate the recorded melting point for every entry that follows.

NS(=O)(=O)c1cnc(-c2cn(-c3cc(-c4ccc(C(F)(F)F)cc4)cc(C(F)(F)F)n3)cn2)s1    > 250 °C
Cc1cc(-c2ccc(C(F)(F)F)cc2)cc(-c2cccc(-c3cncc(S(=O)(=O)NC(C)(C)CO)c3)c2)n1    105 °C (dec.)

Now look at this entry.
Input: Recall and state the measured melting point for "Cc1cc(-c2ccc(C(F)(F)F)c(C)c2)cc(-c2cccc(-c3cccc(S(=O)(=O)NC(C)(C)C)c3)n2)n1" .
Output: 150 °C (dec.)

###

Please provide measured melting point for the entries that follow.

// below: answered compounds
COc1cc(-c2cc(C)nc(-c3ccnc(-c4ccc(S(N)(=O)=O)s4)c3)c2)ccc1C(F)(F)F    261 °C (dec.)
Cc1cc(-c2ccc(Cl)cc2)cc(-c2cccc(-c3ccc(N)nc3)c2)n1    76 to 95 °C
Cc1cc(-c2ccc(C(F)(F)F)cc2)cc(-c2cccc(-c3cccc(S(C)(=O)=O)c3)c2)n1    110 °C (dec.)
Cc1cc(-c2ccc(Cl)c(C)c2)nc(-n2cnc(-c3cccc(S(N)(=O)=O)c3)c2)n1    219 °C (dec.)

I have 7 compounds here; please give me melting point for each one.
1. Cc1cn(-c2cccc(-c3cc(-c4ccc(C(F)(F)F)cc4)cc(C)n3)c2)cn1
2. NS(=O)(=O)c1cccc(-c2cc(-c3cc(C(F)(F)F)cc(-c4ccc(C(F)(F)F)cc4)n3)ccn2)c1
3. Cc1cc(-c2ccc(C(F)(F)F)cc2)cc(-c2cccc(-c3csc(N)n3)c2)n1
4. NS(=O)(=O)c1cnc(-c2cn(-c3cc(C(F)(F)F)cc(-c4ccc(C(F)(F)F)cc4)n3)cn2)s1
5. Cc1cc(-c2ccc(OC(F)(F)F)cc2)cc(-c2cccc(-c3cccc(S(N)(=O)=O)c3)n2)n1
6. Cc1cc(-c2ccc(Cl)cc2)nc(-n2cnc(-c3ccc(N)nc3)c2)n1
7. COc1ccc(CNS(=O)(=O)c2cccc(-c3cccc(-c4cc(-c5ccc(C(F)(F)F)cc5)cc(C)n4)n3)c2)cc1

Output:
1: 126 to 132 °C; 2: 227 °C (dec.); 3: > 250 °C; 4: > 266 °C; 5: 231 °C (dec.); 6: 206 to 208 °C; 7: 126 °C (dec.)
